B1: TPR t1 (parent)
chain: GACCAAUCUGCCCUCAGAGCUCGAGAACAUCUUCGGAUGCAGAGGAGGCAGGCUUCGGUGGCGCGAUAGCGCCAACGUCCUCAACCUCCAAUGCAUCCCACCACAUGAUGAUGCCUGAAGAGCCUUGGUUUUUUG

Variants of: B1
ASSAY TEXT: polymerase ribozyme fitness, log enrichment relative to wild type (log ratio); higher = more active; in vitro selection for triplet polymerase activity
PROPERTY: polymerase ribozyme fitness (log ratio)
I only need the number, thanks.

{"columns": ["VARIANT NOTATION", "PROPERTY", "EXPERIMENTAL VALUE"],
 "data": [
  ["G45A C79G G107A", "polymerase ribozyme fitness (log ratio)", -7.38]
]}

Query: Provide polymerase ribozyme fitness (log ratio) value for the following variant: A27U C123U
Result: -1.65

Query: Give the measured polymerase ribozyme fitness (log ratio) for G93A G117C U130G
Result: -5.98

Query: Quote polymerase ribozyme fitness (log ratio) reported for A26G A37U C49U G120U please.
Result: -2.45
